assay_target: pooled human IgG (human IgG1,2,3 and 4)
quantity_kind: log10 Enzyme Activity Endpoint Assay: Fab'2 (log10 of the value in ng/µL)
Remember, log10 of Enzyme Activity Endpoint Assay: Fab'2, in ng/µL.

Check out these entries, answers already filled in.
| protein | measured_number |
| --- | --- |
| PRT-184 (protein) MANQEIRYSEVTPYHVTSVWTKGVTPPANFTQGEDVFHAPYVANQGWYDITKTFNGKDDLLCGAATAGNMLHWWFDQNKDQIKRYLEEHPEKQKINFNGEQMFDVKEAIDTKNHQLDSKLFEYFKEKAFPYLSTKHLGVFPDHVIDMFINGYRLSLTNHGPTPVKEGSKDPRGGIFDAVFTRGDQSKLLTSRHDFKEKNLKEISDLIKKELTEGKALGLSHTYANVRINHVINLWGADFDSNGNLKAIYVTDSDSNASIGMKKYFVGVNSAGKVAISAKEIKEDNIGAQVLGLFTLSTGQDSWQKLS | 2.80 |
| PRT-191 (protein) MANQEIRYSEVTPYHVTSVWTKGVTPPANFTQGEDVFHAPYVANQGWYDITKTFNGKDDLLCGAATAGNMLHWWFDQNKDQIKRYLEEHPEKQKINFNGEQMFDVKEAIDTKNHQLDSKLFEYFKEKAFPYLSTKHLGVFPDHVIDMFINGYRLSLTNHGPTPVKEGSKDPRGGIFDAVFTRGDQSKLLTSRHDFKEKNLKEISDLIKKELTEGKALGLSHTYANVRHSINHVINLWGADFDSNGNLKAIYVTDSDSNASIGMKKYFVGVNSAGKVAISAKEIKEDNIGAQVLGLFTLSTGQDSWNQTN | 1.56 |
| PRT-183 (protein) MRNATEAYAKEVPHQVTSVWTKGVTPPANFTQGEDVFHAPYVANQGWYDITKTFNGKDDLLCGAATAGNMLHWWFDQNKDQIKRYLEEHPEKQKINFNGEQMFDVKEAIDTKNHQLDSKLFEYFKEKAFPYLSTKHLGVFPDHVIDMFINGYRLSLTNHGPTPVKEGSKDPRGGIFDAVFTRGDQSKLLTSRHDFKEKNLKEISDLIKKELTEGKALGLSHTYANVRINHVINLWGADFDSNGNLKAIYVTDSDSNASIGMKKYFVGVNSAGKVAISAKEIKEDNIGAQVLGLFTLSTGQDSWNQTN | 2.80 |
| PRT-193 (protein) MANQEIRYSEVTPYHVTSVWTKGVTPPANFTQGEDVFHAPYVANQGWYDITKTFNGKDDLLCGAATAGNMLHWWFDQNKDQIKRYLEEHPEKQKINFNGEQMFDVKEAIDTKNHQLDSKLFEYFKEKAFPYLSTKHLGVFPDHVIDMFINGYRLSLTNHGPTPVKEGSKDPRGGIFDAVFTRGDQSKLLTSRHDFKEKNLKEISDLIKKELTEGKALGLSHTYANVRINHVINLWGADFDSNGNLKAIYVTDSDDKKLTIGDERIGMKKYFVGVNSAGKVAISAKEIKEDNIGAQVLGLFTLSTGQDSWNQTN | 1.59 |

Now, please, on to the next protein.
Value lookup for log10 Enzyme Activity Endpoint Assay: Fab'2; key = PRT-187 (protein) MANQEIRYSEVTPYHVTSVWTKGVTPPADFTYGEDVFHAPYVANQGWYDITKTFNGKDDLLCGAATAGNMLHWWFDQNKEQIEKYLKKHPEKQKIMFGDQELLDVRKVINTKGSQTNSELFNYFRDKAFPGLSARRLGVMPDLVLDMFINGYYLNVYKTQTTDVNRTYQEKDKRGGIFDAVFTRGDQSKLLTSRHDFKEKNLKEISDLIKQELTEGKALGLSHTYANVRINHVINLWGADFDSNGNLKAIYVTDSDSNASIGMKKYFVGVNSAGKVAISAKEIKEDNIGAQVLGLFTLSTGQDIWNQTN
2.42

Source of measurements: patent US20250027068
